- system.tested: [Pyruvate dehydrogenase (acetyl-transferring)] kinase isozyme 1, mitochondrial (Homo sapiens, UniProt Q15118)
- Sequence (Q15118 whole entry): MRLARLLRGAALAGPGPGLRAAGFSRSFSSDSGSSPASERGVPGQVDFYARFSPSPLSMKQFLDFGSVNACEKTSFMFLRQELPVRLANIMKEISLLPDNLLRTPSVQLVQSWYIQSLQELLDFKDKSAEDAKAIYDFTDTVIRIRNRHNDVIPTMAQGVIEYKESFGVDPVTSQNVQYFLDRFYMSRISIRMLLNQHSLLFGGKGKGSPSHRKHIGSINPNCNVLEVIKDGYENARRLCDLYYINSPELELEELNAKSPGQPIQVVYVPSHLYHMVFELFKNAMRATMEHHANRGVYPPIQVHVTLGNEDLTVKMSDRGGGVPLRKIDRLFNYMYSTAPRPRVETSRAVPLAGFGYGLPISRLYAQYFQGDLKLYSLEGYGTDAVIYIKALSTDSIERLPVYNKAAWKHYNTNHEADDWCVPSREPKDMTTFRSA
outcome.measure: IC50 (µM)
Response body: numeric value in µM, unit text excluded.

Record summary for "COc1ccc(-c2c(/C=C/C(=O)N3CCN(c4ccccc4OC)CC3)noc2-c2cc(Cl)c(O)cc2O)cc1" : reported IC50 = 0.6

Record summary for "COc1ccc(CN2CCC(NC(=O)c3noc(-c4cc(Cl)c(O)cc4O)c3-c3ccc(OC)cc3)CC2)cc1" : reported IC50 = 0.01

----------
- system.tested: Serine/threonine-protein kinase B-raf (Homo sapiens, UniProt P15056)
- Sequence (P15056 whole entry): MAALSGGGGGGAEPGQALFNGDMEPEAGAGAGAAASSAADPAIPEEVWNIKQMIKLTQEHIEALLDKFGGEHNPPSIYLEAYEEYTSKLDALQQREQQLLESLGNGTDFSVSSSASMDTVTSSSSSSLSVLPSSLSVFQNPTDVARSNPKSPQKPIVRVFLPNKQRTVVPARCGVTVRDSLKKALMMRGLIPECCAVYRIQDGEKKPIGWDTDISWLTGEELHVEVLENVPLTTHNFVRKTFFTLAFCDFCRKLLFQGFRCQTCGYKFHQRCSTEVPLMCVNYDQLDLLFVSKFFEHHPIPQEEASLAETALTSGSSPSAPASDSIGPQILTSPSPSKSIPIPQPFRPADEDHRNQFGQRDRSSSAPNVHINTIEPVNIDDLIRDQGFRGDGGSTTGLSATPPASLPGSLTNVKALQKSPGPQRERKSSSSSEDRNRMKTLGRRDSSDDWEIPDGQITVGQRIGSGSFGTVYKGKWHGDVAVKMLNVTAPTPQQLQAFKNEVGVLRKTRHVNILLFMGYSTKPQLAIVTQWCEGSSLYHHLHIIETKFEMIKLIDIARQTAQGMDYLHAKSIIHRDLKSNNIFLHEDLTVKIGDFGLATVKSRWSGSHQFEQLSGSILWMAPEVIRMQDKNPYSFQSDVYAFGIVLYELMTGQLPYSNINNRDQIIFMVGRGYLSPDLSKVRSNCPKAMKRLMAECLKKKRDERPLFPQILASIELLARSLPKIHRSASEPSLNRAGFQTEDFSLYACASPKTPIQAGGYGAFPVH
outcome.measure: pIC50
Here pIC50 is given on a logarithmic scale as minus log10 of the concentration in mol/L.

Record summary for "N#Cc1c(N)nc2sc(C(N)=O)c(N)c2c1-c1ccc(Cl)cc1" : reported pIC50 = 5.82

----------
- system.tested: Serine/threonine-protein kinase B-raf (Homo sapiens, UniProt P15056, V600E)
- Sequence (P15056 2-766 V600E limits assumed): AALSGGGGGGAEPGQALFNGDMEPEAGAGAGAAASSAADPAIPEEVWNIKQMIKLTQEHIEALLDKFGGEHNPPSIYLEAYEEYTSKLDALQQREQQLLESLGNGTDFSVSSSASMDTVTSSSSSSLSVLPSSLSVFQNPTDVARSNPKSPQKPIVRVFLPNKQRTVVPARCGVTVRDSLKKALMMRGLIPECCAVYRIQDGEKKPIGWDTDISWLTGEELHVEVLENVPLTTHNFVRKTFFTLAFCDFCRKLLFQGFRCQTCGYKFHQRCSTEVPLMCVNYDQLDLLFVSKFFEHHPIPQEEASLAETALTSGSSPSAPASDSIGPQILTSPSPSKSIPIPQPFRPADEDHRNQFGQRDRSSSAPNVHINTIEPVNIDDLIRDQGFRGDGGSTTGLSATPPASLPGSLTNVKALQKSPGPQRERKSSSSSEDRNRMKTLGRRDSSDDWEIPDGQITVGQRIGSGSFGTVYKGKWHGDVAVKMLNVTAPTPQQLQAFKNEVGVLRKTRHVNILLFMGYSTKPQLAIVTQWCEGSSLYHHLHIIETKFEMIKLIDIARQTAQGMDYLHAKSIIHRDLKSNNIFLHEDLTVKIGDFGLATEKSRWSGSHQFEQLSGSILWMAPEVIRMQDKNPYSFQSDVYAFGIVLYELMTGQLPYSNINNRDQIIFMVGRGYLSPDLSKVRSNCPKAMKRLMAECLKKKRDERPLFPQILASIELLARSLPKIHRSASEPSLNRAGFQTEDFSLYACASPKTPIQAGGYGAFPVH
- experimental.protocol: Inhibition of B-Raf V600E mutant (unknown origin)
Exercise: for every item that follows, state its recorded pIC50.
Here pIC50 is given on a logarithmic scale as minus log10 of the concentration in mol/L.

Log: Serine/threonine-protein kinase B-raf (Homo sapiens, UniProt P15056, V600E), compound "N#Cc1c(N)nc2sc(C(N)=O)c(N)c2c1-c1ccc(Cl)cc1" , pIC50 = 5.60

Log: Serine/threonine-protein kinase B-raf (Homo sapiens, UniProt P15056, V600E), compound "COc1ccc(-c2c(C#N)c(N)nc3sc(C(N)=O)c(N)c23)cc1OC" , pIC50 = 5.04

----------
- system.tested: Tubulin
- experimental.protocol: Inhibition of tubulin polymerization (unknown origin)
outcome.measure: IC50 (µM)
Response body: numeric value in µM, unit text excluded.

Log: Tubulin, compound "CN(C)c1ccc(/C=C2\S/C(=N/c3ccccc3Cl)NC2=O)cc1" , IC50 = 16.7

----------
- system.tested: Heat shock protein HSP 90-alpha (Homo sapiens)
- experimental.protocol: Binding affinity to HSP90alpha (unknown origin) assessed as dissociation constant by fluorescence polarization assay
Exercise: for every item that follows, state its recorded pKd.
Here pKd is given on a logarithmic scale as minus log10 of the concentration in mol/L.

Record summary for "Cc1ccc(Sc2cc(C(=O)N3Cc4ccc(OCCC[N+](C)(C)C)cc4C3)ccc2O)cc1C" : reported pKd = 6.47

Record summary for "CCOC(=O)c1c(O)cc(O)c(Cl)c1CC(=O)Nc1cc(O)c(OC)cc1O" : reported pKd = 6.06

Record summary for "Cc1c(C)c(S(=O)(=O)Nc2ccc(Nc3ccnc(N4CCNCC4)n3)cc2)c(C)c2c1OC(C)(C)C2" : reported pKd = 5.26

----------
- system.tested: Endoplasmin (Homo sapiens)
- Sequence (P14625 whole entry): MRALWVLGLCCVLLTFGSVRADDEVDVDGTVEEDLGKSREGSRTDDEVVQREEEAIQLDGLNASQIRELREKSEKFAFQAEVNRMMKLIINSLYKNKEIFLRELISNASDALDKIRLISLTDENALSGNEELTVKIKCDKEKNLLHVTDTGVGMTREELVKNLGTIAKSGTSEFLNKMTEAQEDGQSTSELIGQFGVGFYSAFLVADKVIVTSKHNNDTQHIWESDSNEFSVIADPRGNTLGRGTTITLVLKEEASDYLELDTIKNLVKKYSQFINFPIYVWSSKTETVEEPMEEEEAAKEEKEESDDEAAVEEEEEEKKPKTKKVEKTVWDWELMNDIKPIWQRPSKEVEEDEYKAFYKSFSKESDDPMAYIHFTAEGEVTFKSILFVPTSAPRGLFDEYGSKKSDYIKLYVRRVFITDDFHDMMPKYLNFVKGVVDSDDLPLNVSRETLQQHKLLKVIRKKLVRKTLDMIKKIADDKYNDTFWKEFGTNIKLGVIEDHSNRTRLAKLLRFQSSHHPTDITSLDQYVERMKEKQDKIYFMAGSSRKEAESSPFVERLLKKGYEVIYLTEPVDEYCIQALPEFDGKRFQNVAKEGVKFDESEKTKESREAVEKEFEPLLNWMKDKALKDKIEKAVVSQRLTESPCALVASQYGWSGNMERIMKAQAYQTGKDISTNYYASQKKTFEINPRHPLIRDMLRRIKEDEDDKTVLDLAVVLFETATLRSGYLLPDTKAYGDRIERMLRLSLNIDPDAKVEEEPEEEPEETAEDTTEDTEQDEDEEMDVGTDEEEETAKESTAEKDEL
- experimental.protocol: Inhibition of recombinant GRP94 (unknown origin)
outcome.measure: IC50

Record summary for "CCOc1ccccc1Cn1ccnc1CCc1c(Cl)c(O)cc(O)c1C(=O)OC" : reported IC50 = 200 nM

----------
- experimental.protocol: Inhibition of DNA topoisomerase 2 (unknown origin)
- Set-up: species or system Homo sapiens
outcome.measure: IC50 (µM)
Response body: numeric value in µM, unit text excluded.

Record summary for "CC1(C)CC(=O)C=C(Nc2c(N)[nH]c(=O)[nH]c2=O)C1" : reported IC50 = 4.48
